Source of measurements: patent US20260262643A1

# System: corn
# method-summary: Test C postemergence
# Type: in vivo, Zea mays
# cond: Postemergence, 125 g ai/ha; 0 to 100 scale (0 no effect, 100 complete control), 10 days
measured-metric: Plant response rating, Corn

Examples with answers:
CC(C)(C)c1ncn(-c2cc(C(=O)N3CC(C(F)(F)F)Oc4c(Cl)cccc43)ccn2)n1 (stereo not drawn) [Compound 322] : 10
Cc1cccc2c1OC(C(F)(F)F)CN2C(=O)c1cccc(-n2cnc(C(C)C)n2)c1 (single isomer, unassigned) [Compound 302] : 10
Cc1ccc(-n2cnc(C#N)n2)cc1C(=O)N1C[C@H](C)Oc2c(Cl)cccc21 [Compound 363] : 10
CC(C)(C)c1ncn(-c2cccc(C(=O)N3CC(C(F)(F)F)Oc4c(Cl)cccc43)c2)n1 (stereo not drawn) [Compound 353] : 10
CC(C)Oc1ncn(-c2cccc(C(=O)N3C[C@H](C)Oc4c(Cl)cccc43)c2)n1 [Compound 312] : 10
CCOCC1CN(C(=O)c2cc(-n3cnc(C4CCC4)n3)ccc2OC)c2cccc(Cl)c2O1 (stereo not drawn) [Compound 377] : 20
Cc1ccc(-n2cnc(C3(C#N)CCC3)n2)cc1C(=O)N1C[C@H](C)Oc2c(Cl)cccc21 [Compound 402] : 10
C[C@H]1CN(C(=O)c2cc(-n3cncn3)cc(C(F)(F)F)c2)c2cccc(Cl)c2O1 [Compound 335] : 10
Cc1cccc2c1OC(C(F)(F)F)CN2C(=O)c1ccnc(-n2cnc(C(C)C)n2)c1 (stereo not drawn) [Compound 327] : 70
COc1ncn(-c2cccc(C(=O)N3C[C@H](C)Oc4c(Cl)cccc43)c2)n1 [Compound 310] : 10

Q. Quick check: Plant response rating, Corn on corn, item C=C(C)c1cc(C(=O)N2C[C@H](C)Oc3c(Cl)cccc32)cc(-n2cncn2)c1 [Compound 317] ?
A. 10

Q. Quick check: Plant response rating, Corn on corn, item COC[C@H]1CN(C(=O)c2cc(-n3cnc(C(C)(C)O)n3)ccc2OC)c2cccc(Cl)c2O1 [Compound 408] ?
A. 10

Q. Quick check: Plant response rating, Corn on corn, item COc1ncn(-c2cccc(C(=O)N3C[C@H](C)Oc4c(C)cccc43)c2)n1 [Compound 307] ?
A. 10

Q. Quick check: Plant response rating, Corn on corn, item COC[C@H]1CN(C(=O)c2cc(-n3cnc(C(C)C)n3)cc3c2OCCO3)c2cccc(Cl)c2O1 [Compound 395] ?
A. 70

Q. Quick check: Plant response rating, Corn on corn, item CCOC[C@H]1CN(C(=O)c2cc(-n3cnc(CC)n3)ccc2C)c2cccc(Cl)c2O1 [Compound 412] ?
A. 20

Q. Quick check: Plant response rating, Corn on corn, item CCOC(=O)c1ncn(-c2ccc(C)c(C(=O)N3C[C@H](C)Oc4c(Cl)cccc43)c2)n1 [Compound 342] ?
A. 70

* * *

# Test system: horseweed
# method-summary: Test C postemergence
# Format: in vivo, Erigeron canadensis
# cond: 125 g ai/ha, postemergence, 10 days; 0 to 100 scale, 0 no effect, 100 complete control
Entries and their Plant response rating, Horseweed values follow.
Answer using only a numeral; do not append any unit.

C[C@H]1CN(C(=O)c2cc(-n3cncn3)cc3c2OCCO3)c2cccc(Cl)c2O1 [Compound 153] : 60
COC[C@H]1CN(C(=O)c2cc(-n3cnc(C4CC4)n3)ccc2C)c2cccc(Cl)c2O1 [Compound 266] : 20
Cc1ccc(-n2cnc(C(C)(C)C)n2)cc1C(=O)N1CC(C(F)(F)F)Oc2c(Cl)cccc21 (single isomer, unassigned) [Compound 192] : 0
CC(C)c1ncn(-c2ccc(SC(F)(F)F)c(C(=O)N3C[C@H](C)Oc4c(Cl)cccc43)c2)n1 [Compound 249] : 0
Cc1cc(-n2cnc(C(C)C)n2)cc(C(=O)N2C[C@H](C)Oc3c(Cl)cccc32)c1Cl [Compound 220] : 60
Cc1ccc(-n2cnc(C(C)C)n2)cc1C(=O)N1C[C@H](C)Oc2c1cccc2C(F)(F)F [Compound 170] : 80
Cc1ccc(-n2cnc(CC3CC3)n2)cc1C(=O)N1C[C@H](C)Oc2c(Cl)cccc21 [Compound 273] : 0
CCc1c(F)cc(-n2cnc(C(C)C)n2)cc1C(=O)N1C[C@H](C)Oc2c(Cl)cccc21 [Compound 152] : 0
CCc1c(C)cc(-n2cnc(C(C)C)n2)cc1C(=O)N1C[C@H](C)Oc2c(Cl)cccc21 [Compound 179] : 0
COC[C@H]1CN(C(=O)c2cc(-n3cnc(C4CCC4)n3)ccc2C)c2cccc(Cl)c2O1 [Compound 267] : 60

Q. Endpoint output: Plant response rating, Horseweed of CCc1ncn(-c2ccc(C)c(C(=O)N3CC(C(F)(F)F)Oc4c(Cl)cccc43)c2)n1 (racemic) [Compound 290] . Value?
A. 40

Q. Endpoint output: Plant response rating, Horseweed of COc1ccc(-n2cnc(C(C)(C)O)n2)cc1C(=O)N1C[C@H](C)Oc2c(C)cccc21 [Compound 280] . Value?
A. 30

Q. Endpoint output: Plant response rating, Horseweed of COc1ccc(-n2cnc(C(C)C)n2)cc1C(=O)N1C[C@H](C)Oc2c(F)cccc21 [Compound 269] . Value?
A. 20

Q. Endpoint output: Plant response rating, Horseweed of CCc1ncn(-c2ccc(C)c(C(=O)N3C[C@H](COC)Oc4c(Cl)cccc43)c2)n1 [Compound 265] . Value?
A. 40

Q. Endpoint output: Plant response rating, Horseweed of Cc1cc(-n2cnc(C(C)C)n2)cc(C(=O)N2C[C@H](C)Oc3c(Cl)cccc32)c1C [Compound 259] . Value?
A. 0
